- Tested on: Escherichia coli (E. coli) strain CFT073 ATCC 700928
- Assay type: cell-based
- cond: ATCC 700928, 22 h
*1 amine or outer side, *2 acyl side, *3 side chain or, on linkers, in order; H or OH if unused. Where a SMILES comes first, the peptide text is derived from it. [ ]: non-standard residue; d: D form. The star is where a group is joined. X12 = C[C@H](CO[C@H](CC12CC3CC(CC(C3)C1)C2)[C@@H](C)C(=O)[*:2])N[*:1]; X6 = CCCCCC[C@@H](OC[C@@H](CC)N[*:1])[C@@H](C)C(=O)[*:2]; X2 = CCCCCC[C@@H](OC[C@@H](C)N[*:1])[C@@H](C)C(=O)[*:2]; Propyl(3-guanidino) = N=C(N)NCCC*; aThr = C[C@H](O)[C@H](N)C(=O)O; NMeL = CN[C@@H](CC(C)C)C(=O)O; Chg = N[C@H](C(=O)O)C1CCCCC1; Dap = NC[C@H](N)C(=O)O
metric name: log10 MIC (log10 of the value in µM)
Please interpret these as log10 of MIC where MIC is in µM.

Solved entries:
Q) Which log10 MIC is listed for CCCCCC[C@H]1OC[C@@H](CC)NC(=O)[C@H]([C@H](C)O)NC(=O)[C@H](CN)NC(=O)[C@H](C2CCCCC2)NC(=O)[C@H](CC(C)C)N(C)C(=O)[C@@H]1C [Example 144] (cyclo([Chg][Dap][aThr][X6][NMeL])) ?
A) 0.34

Q) // next record CCCCCC[C@H]1OC(=O)CNC(=O)[C@H](CNC(=O)CN(C)C)NC(=O)[C@H](CN)NC(=O)[C@H](C2CCCCC2)NC(=O)[C@H](CC(C)C)N(C)C(=O)[C@@H]1C
A) 1.40

Q) // next record CCCCCC[C@H]1OC[C@@H](C)NC(=O)[C@H](COCCCNC(=N)N)NC(=O)[C@H](CN)NC(=O)[C@H](C2CCCCC2)NC(=O)[C@H](CC(C)C)N(C)C(=O)[C@@H]1C [Example 82] (cyclo([Chg][Dap]S(Propyl(3-guanidino))[X2][NMeL]))
A) 0.64

More entries:
Q) Which log10 MIC is listed for CCC[C@H]1C(=O)N[C@@H](C2CCCCCC2)C(=O)N[C@@H](CN)C(=O)N[C@@H]([C@H](C)O)C(=O)NCC(=O)O[C@H](CC2CC3(CCC3)C2)[C@@H](C)C(=O)N1C ?
A) -0.11

Q) // next record CCCCCCCCCC[C@H]1OC(=O)CNC(=O)[C@H](CCO)NC(=O)[C@H](CN)NC(=O)[C@H]([C@H](C)CC)NC(=O)[C@H](CC(C)C)N(C)C(=O)[C@@H]1C
A) 0.80

Q) // next record CCCCCCCCCC[C@H]1OC(=O)CNC(=O)[C@H](COCCCN)NC(=O)[C@H](CO)NC(=O)[C@H]([C@@H](C)CC)NC(=O)[C@H](CC(C)C)N(C)C(=O)[C@@H]1C
A) 1.15

Q) // next record CC(C)C[C@H]1C(=O)N[C@@H](C2CCCCC2)C(=O)N[C@@H](CN)C(=O)N[C@@H]([C@H](C)O)C(=O)N[C@H](C)CO[C@H](CC23CC4CC(CC(C4)C2)C3)[C@@H](C)C(=O)N1C [Example 74] (cyclo([Chg][Dap][aThr][X12][NMeL]))
A) 0.20

Q) // next record CCCCCC[C@H]1OC(=O)CNC(=O)[C@H]([C@H](C)O)NC(=O)[C@H](CO)NC(=O)[C@H]([C@H](C)CC)NC(=O)[C@H](CC(C)C)N(C)C(=O)[C@@H]1CCCc1ccc(C)cc1
A) 0.80

Q) // next record CCCCCC[C@H]1OC(=O)CNC(=O)[C@H]([C@H](C)O)NC(=O)[C@H](CN)NC(=O)[C@H](CC(C)C)NC(=O)[C@H](CC(C)C)N(C)C(=O)[C@@H]1C
A) 1.32
